Origin of values: ChEMBL document CHEMBL1152488

Molecular target: Nitric oxide synthase 3 (Bos taurus) (UniProt P29473)
Sequence (whole entry): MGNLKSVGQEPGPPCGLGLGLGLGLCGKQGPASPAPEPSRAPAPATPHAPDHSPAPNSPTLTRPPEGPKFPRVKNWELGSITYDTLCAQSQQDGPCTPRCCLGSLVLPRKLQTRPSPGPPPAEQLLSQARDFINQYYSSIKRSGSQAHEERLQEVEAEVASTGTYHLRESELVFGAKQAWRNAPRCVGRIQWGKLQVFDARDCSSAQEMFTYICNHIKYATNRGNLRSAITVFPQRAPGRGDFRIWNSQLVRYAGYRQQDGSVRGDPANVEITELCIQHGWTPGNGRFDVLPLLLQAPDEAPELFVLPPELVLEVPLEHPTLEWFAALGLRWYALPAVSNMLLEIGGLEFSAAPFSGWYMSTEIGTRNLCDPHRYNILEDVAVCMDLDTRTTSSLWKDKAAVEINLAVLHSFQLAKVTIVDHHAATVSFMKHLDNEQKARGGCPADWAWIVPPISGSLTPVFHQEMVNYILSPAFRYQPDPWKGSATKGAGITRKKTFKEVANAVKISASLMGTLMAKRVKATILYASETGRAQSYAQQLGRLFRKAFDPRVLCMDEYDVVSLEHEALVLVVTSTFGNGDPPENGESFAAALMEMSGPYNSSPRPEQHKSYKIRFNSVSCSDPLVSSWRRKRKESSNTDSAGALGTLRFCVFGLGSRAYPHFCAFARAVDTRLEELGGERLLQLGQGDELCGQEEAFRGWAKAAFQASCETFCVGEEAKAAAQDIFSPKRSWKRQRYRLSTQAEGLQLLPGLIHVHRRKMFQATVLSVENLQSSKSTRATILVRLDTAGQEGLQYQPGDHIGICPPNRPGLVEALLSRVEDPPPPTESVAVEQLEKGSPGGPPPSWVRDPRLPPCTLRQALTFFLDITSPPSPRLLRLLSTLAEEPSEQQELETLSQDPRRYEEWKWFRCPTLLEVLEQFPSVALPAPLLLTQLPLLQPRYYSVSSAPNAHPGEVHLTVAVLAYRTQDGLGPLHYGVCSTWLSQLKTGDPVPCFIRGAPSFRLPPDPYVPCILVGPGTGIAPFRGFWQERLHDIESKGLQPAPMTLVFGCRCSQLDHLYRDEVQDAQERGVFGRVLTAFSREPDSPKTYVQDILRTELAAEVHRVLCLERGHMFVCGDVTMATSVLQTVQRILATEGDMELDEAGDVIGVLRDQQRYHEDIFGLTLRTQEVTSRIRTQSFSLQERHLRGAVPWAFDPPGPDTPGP
Test: Inhibition of bovine eNOS expressed in insect Sf9 cells assessed as residual activity at 100 uM by Griess assay relative to control
measure: Activity (%)
Write the number in % without appending the unit.

>>> readout_number("CC1=CC=CN2CC(C(=O)c3ccc(C)cc3)CN=C12 (stereo not given)")
93
>>> readout_number("CC1=CC=CC2=NCC(C(=O)c3ccc(C)cc3)CN12.[O-][Cl+3]([O-])([O-])O (stereo not given)")
101
>>> readout_number("COc1cc(C(=O)C2CN=C3C=CC=CN3C2)cc(OC)c1OC (stereo not given)")
86
>>> readout_number("CC1=CC=CC2=NCC(C(=O)c3ccc(F)cc3)CN12.[O-][Cl+3]([O-])([O-])O (stereo not given)")
41

input: Consider the compound Cc1ccc(C(=O)C2CN=C3C=CC=CN3C2)cc1.[O-][Cl+3]([O-])([O-])O (stereo not given) and give its measured Activity.
output: 94
